Measured pIC50 values are reported for all entries that follow.
- measurement_target: T1, CHO-hu α11 (Homo sapiens, UniProt Q9UKX5)
- T1 construct: expressed in transfected cells; host or cells: CHO-K1
- T1 sequence (Q9UKX5 23-1188): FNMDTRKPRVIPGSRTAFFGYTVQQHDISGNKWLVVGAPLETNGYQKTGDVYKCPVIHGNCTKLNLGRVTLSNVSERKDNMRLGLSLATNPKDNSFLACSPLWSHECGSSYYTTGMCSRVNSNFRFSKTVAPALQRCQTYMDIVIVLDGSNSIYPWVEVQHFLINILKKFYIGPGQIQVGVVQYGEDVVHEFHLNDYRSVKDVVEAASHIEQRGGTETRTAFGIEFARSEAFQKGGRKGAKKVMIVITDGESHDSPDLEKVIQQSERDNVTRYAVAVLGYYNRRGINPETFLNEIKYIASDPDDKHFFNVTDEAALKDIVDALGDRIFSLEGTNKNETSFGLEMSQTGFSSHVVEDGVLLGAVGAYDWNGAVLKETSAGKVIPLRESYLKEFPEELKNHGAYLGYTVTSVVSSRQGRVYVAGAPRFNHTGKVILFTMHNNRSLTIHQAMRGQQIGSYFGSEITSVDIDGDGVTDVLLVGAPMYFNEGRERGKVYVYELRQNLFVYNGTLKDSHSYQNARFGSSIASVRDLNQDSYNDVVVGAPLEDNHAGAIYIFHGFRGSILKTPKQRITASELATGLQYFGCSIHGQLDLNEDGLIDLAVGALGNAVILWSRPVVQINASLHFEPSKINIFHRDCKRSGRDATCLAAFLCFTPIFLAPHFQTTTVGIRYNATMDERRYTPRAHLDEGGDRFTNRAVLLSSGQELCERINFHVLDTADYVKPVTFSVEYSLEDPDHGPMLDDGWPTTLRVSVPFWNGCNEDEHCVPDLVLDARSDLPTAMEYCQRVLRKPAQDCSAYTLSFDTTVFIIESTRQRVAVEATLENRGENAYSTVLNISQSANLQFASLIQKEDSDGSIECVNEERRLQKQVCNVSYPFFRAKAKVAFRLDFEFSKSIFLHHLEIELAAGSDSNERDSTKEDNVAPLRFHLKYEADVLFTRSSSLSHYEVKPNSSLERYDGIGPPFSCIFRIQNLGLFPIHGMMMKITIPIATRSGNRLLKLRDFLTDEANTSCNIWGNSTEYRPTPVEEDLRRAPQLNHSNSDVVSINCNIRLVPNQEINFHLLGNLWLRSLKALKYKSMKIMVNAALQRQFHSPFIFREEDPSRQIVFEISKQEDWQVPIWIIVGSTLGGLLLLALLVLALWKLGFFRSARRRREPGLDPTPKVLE
- T1 sequence (P05556 21-798 partner): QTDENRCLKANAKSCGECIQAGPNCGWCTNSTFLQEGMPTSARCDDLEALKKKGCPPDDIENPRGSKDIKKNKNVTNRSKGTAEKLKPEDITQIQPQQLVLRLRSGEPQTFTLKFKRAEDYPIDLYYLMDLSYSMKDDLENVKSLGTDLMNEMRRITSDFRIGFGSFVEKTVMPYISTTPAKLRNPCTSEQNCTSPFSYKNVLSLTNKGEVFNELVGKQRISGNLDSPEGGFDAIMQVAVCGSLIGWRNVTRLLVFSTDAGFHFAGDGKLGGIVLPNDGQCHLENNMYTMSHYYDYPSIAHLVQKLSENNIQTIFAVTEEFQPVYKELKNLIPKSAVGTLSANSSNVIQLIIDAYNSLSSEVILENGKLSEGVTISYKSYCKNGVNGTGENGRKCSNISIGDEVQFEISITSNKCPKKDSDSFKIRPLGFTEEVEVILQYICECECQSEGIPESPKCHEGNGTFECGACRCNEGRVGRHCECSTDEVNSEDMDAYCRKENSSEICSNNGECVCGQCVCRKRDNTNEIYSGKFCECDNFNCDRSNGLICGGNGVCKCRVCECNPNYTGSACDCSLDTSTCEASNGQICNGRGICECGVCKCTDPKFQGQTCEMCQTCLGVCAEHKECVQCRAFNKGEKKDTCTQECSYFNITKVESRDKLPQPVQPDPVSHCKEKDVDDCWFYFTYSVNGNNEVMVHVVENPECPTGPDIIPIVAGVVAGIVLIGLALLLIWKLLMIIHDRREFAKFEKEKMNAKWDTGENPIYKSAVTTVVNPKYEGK
- measurement_description: Cell adhesion inhibition on type I collagen (xCelligence)
- Format: cell-based
- measurement_parameters: Table 12, 16E10 variants, FIG. 5B; read-out: CHO-α11 Adhesion Inhibition IC50
Scale: pIC50 equals -log10([C]), with [C] in mol/L.

Some molecules with known pIC50 results, for comparison:
| molecule | quantitative_readout |
| --- | --- |
| 16E10: anti-α11β1 monoclonal antibody from B cell sorting; VH SEQ ID NO: 57, VL SEQ ID NO: 62 (antibody, V domains shown) VH: QSLEESGGDLVKPGASLTLTCRVSGFSFSSSYYMCWVRQAPGKGLEWIACIGTTRGSTYYATWAKGRFTISKISSTTVTLQMTSLTDADTATYFCARDATGYRINTIGLYFNLWGPGTLVTVSS VL: ELTQTPSSVEAAVGGTPTIKCQASQTIYSYLSWYQQKPGQPPKLLIYEASKLASGVPSRFSGSGSGTDYTLTISDLECADAATYYCQSYHGTASTEYNTFGGGTEVVVK | 9.40 |
| A11BB129: 16E10 variant; VH SEQ ID NO: 54, VL SEQ ID NO: 61 (antibody, V domains shown) VH: EVQLLESGGGLVQPGGSLRLSCAASGFSFSSSYYMSWVRQAPGKGLEWVSAIGTTRGSTYYADSVKGRFTISRDNSKNTVYLQMNSLRAEDTAVYYCARDATGYRINTIGLYFNLWGQGTLVTVSS VL: DIVMTQSPDSLAVSLGERATINCQASQTIYSYLSWYQQKPGQPPKLLIYEASKLASGVPDRFSGSGSGTDYTLTISSLQAEDVAVYYCQSYHGTASTEYNTFGGGTKVEIK | 9.30 |
| A11BB127: 16E10 variant; VH SEQ ID NO: 46, VL SEQ ID NO: 61 (antibody, V domains shown) VH: EVQLLESGGGLVQPGGSLRLSCAASGFSFSSSYYMAWVRQAPGKGLEWVSAIGTTRGSTYYADSVKGRFTISRDNSKNTVYLQMNSLRAEDTAVYYCARDATGYRINTIGLYFNLWGQGTLVTVSS VL: DIVMTQSPDSLAVSLGERATINCQASQTIYSYLSWYQQKPGQPPKLLIYEASKLASGVPDRFSGSGSGTDYTLTISSLQAEDVAVYYCQSYHGTASTEYNTFGGGTKVEIK | 9.40 |

Let us examine a further case.
Task item: Any idea what pIC50 was measured for A11BB117: 16E10 variant; VH SEQ ID NO: 56, VL SEQ ID NO: 61 (antibody, V domains shown) VH: EVQLLESGGGLVQPGGSLRLSCAASGFSFSSSYYMSWVRQAPGKGLEWVSAIGTTRGSTYYADSVKGRFTISRDSSKNTVYLQMNSLRAEDTAVYFCARDATGYRINTIGLYFNLWGQGTLVTVSS VL: DIVMTQSPDSLAVSLGERATINCQASQTIYSYLSWYQQKPGQPPKLLIYEASKLASGVPDRFSGSGSGTDYTLTISSLQAEDVAVYYCQSYHGTASTEYNTFGGGTKVEIK ?
Reply: 9.15

Source: patent US20260184794A1
